Source: patent US10407440B2

molecular target: human adenosine A2A receptor (Homo sapiens); construct: host or cells: HEK-293 cells (membranes); assay: Adenosine A2A receptor binding test (3H-CGS21680 binding); conditions: compound at 100 nmol/L; Table 2, measured by Ricerca Biosciences, LLC; read-out: Inhibitory rate for human adenosine A2A receptor binding (3H-CGS21680 binding)
Sequence (P29274 whole entry): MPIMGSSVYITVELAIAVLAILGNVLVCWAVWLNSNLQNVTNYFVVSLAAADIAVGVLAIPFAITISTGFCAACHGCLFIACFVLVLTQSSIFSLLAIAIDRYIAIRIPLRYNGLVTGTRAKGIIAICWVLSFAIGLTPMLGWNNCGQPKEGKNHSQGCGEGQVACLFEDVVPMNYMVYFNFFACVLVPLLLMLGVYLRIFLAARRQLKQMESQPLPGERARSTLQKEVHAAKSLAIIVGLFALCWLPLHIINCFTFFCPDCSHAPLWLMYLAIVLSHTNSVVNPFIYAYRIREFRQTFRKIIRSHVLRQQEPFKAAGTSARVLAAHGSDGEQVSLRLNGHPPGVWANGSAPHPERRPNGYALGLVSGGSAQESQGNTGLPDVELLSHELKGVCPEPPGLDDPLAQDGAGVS
recorded-endpoint: inhibition at 0.1 µM (%)

{"molecule": "O=C(Nc1nc(-c2ccco2)c(C(=O)C2CCOCC2)s1)c1cnc2c(c1)CCC2 [(IT)]", "recorded-measurement": 91}
{"molecule": "COc1ccc(C(=O)Nc2nc(-c3ccco3)c(C(=O)C3CCOCC3)s2)cn1 [(IO)]", "recorded-measurement": 97}
{"molecule": "COCc1cc(C(=O)Nc2nc(-c3ccco3)c(C(=O)C3CCOCC3)s2)ccn1 [(IJ)]", "recorded-measurement": 93}
{"molecule": "C=Cc1ccc(C(=O)Nc2nc(-c3ccco3)c(C(=O)C3CCOCC3)s2)cn1 [(IE)]", "recorded-measurement": 93}
{"molecule": "CCc1cncc(C(=O)Nc2nc(-c3ccoc3)c(C(=O)C3CCOCC3)s2)c1 [(IZ)]", "recorded-measurement": 102}
{"molecule": "O=C(Nc1nc(-c2ccco2)c(C(=O)C2CCOCC2)s1)c1cnc2c(c1)COCC2 [(IS)]", "recorded-measurement": 90}
{"molecule": "O=C(Nc1nc(-c2ccco2)c(C(=O)C2CCOCC2)s1)c1cccc2[nH]ccc12 [(IH)]", "recorded-measurement": 98}
{"molecule": "CCCc1ccc(C(=O)Nc2nc(-c3ccco3)c(C(=O)C3CCOCC3)s2)cn1 [(IW)]", "recorded-measurement": 98}
{"molecule": "CCc1ccc(C(=O)Nc2nc(-c3ccco3)c(C(=O)C3CCOCC3)s2)cn1 [(IV)]", "recorded-measurement": 98}
